- method.summary: Stability in rat plasma
- Assay type: in vitro ADME
- condition.context: after 4 hours, 37° C.
Returns: string. Value is true if measured residual percentage in rat plasma is below 80%, and false if it is greater than or equal to it.

# input Please indicate whether the reported residual percentage in rat plasma of CN(C)S(=O)(=O)c1cccc(-c2nnn(Cc3ccc(C(=O)NO)cc3)n2)c1 [comp. 59] is strictly below 80%.
# output true

# input Given the entry Cn1c(Sc2c(F)cc(C(=O)NO)cc2F)nnc1-c1cccc(CN2CCCCCC2)c1 [comp. 167] , would its reported residual percentage in rat plasma be below 80%?
# output false

# input State whether 80% exceeds residual percentage in rat plasma recorded for O=C(NO)c1ccc(Cn2nnnc2-c2cccs2)cc1 [comp. 8] .
# output true

# input Here's an entry: Cn1c(Sc2c(F)cc(C(=O)NO)cc2F)nnc1-c1sc2ncccc2c1N [comp. 99] . Is its residual percentage in rat plasma below 80%?
# output false

# input Please let me know if Cn1c(Sc2c(F)cc(C(=O)NO)cc2F)nnc1-c1ncccc1F [comp. 180] shows residual percentage in rat plasma below 80%.
# output false

# input Please let me know if O=C(NO)c1ccc(Cn2nnc(-c3ncccn3)n2)cc1 [comp. 123] shows residual percentage in rat plasma below 80%.
# output false

# input hey, is residual percentage in rat plasma for O=C(NO)c1ccc(Cn2nnc(-c3ccccc3F)n2)cc1 [comp. 33] lower than 80% or not?
# output true

# input Identify whether the molecule Cn1c(Sc2c(F)cc(C(=O)NO)cc2F)nnc1-c1cccc(S(=O)(=O)N2CCN(Cc3ccccc3)CC2)c1 [comp. 152] records residual percentage in rat plasma below 80%.
# output false

* * *

Please go through the items and note down their residual percentage in rat S9 fraction.
- method.summary: Stability to Phase I metabolism in rat S9 liver fraction
- Type: in vitro ADME
- condition.context: after 90 min, 37° C.
Dear colleague, please return just the value in %, with no unit written.

# input Fill blank: measured residual percentage in rat S9 fraction of the molecule O=C(NO)c1cc(F)c(Sc2nnc(-c3cnccn3)n2Cc2ccco2)c(F)c1 is ____.
# output 40

# input Give its residual percentage in rat S9 fraction value. Item: CN(c1ccc(-c2nnc(Sc3c(F)cc(C(=O)NO)cc3F)s2)cc1)S(C)(=O)=O
# output 17

# input Give its residual percentage in rat S9 fraction value. Item: O=C(NO)c1ccc(Cn2nnc(-c3ccc(Cl)cc3)n2)cc1
# output 0

# input Could you tell me which residual percentage in rat S9 fraction is on file for O=C(NO)c1ccc(Cc2nnc(-c3ccccc3)o2)cc1 ?
# output 34

# input Any idea what its residual percentage in rat S9 fraction is? The molecule is Cn1c(Sc2c(F)cc(C(=O)NO)cc2F)nnc1-c1ccco1
# output 57

# input I would be grateful if you could share the reported residual percentage in rat S9 fraction for O=C(NO)c1cc(F)c(Cc2noc(-c3ccccc3)n2)c(F)c1 .
# output 3

# input Entry O=C(NO)c1ccc(Cn2nnc(-c3ccc(S(F)(F)(F)(F)F)cc3)n2)cc1 : reported residual percentage in rat S9 fraction = ?
# output 16

# input Form field: reported residual percentage in rat S9 fraction of Cn1c(Sc2c(F)cc(C(=O)NO)cc2F)nnc1-c1cccc(CN2CCCCCC2)c1
# output 55

# input Fill blank: measured residual percentage in rat S9 fraction of the molecule CN(C)c1cccc(-c2nnc(Sc3ccc(C(=O)NO)cc3)n2C)c1 is ____.
# output 40

# input Recorded residual percentage in rat S9 fraction for Cn1c(Sc2c(F)cc(C(=O)NO)cc2F)nnc1-c1ccc2ccccc2n1 , please?
# output 47

# input I'd like to know its residual percentage in rat S9 fraction. The molecule in question is O=C(NO)c1ccc(Cn2nnc(-c3ncccn3)n2)cc1
# output 99

# input molecule: O=C(NO)c1cc(F)c(Cc2nnc(-c3cncc(N4CCOCC4)c3)s2)c(F)c1 ; wanted: its residual percentage in rat S9 fraction
# output 62

# input residual percentage in rat S9 fraction for CN(C)Cc1ccc(-c2nnc(Sc3c(F)cc(C(=O)NO)cc3F)n2C)o1 ?
# output 50

# input Name the recorded residual percentage in rat S9 fraction for Cn1c(Sc2c(F)cc(C(=O)NO)cc2F)nnc1-c1nccc2ccccc12 .
# output 25

# input Name the recorded residual percentage in rat S9 fraction for O=C(NO)c1cc(F)c(Cc2nnc(-c3ccncc3)s2)c(F)c1 .
# output 32

# input Give the measured residual percentage in rat S9 fraction of O=C(NO)c1ccc(Cn2nnc(-c3ccccc3)n2)cc1 .
# output 9

# input Sample COc1ccc(C2(c3nnc(Sc4c(F)cc(C(=O)NO)cc4F)n3C)CCCCC2)cc1 — what was its residual percentage in rat S9 fraction?
# output 5

# input State the recorded residual percentage in rat S9 fraction for this entry: O=C(NO)c1ccc(Cc2noc(-c3ccccc3)n2)cc1
# output 5

# input Recorded residual percentage in rat S9 fraction of O=C(NO)c1cc(F)c(Cn2nnc(-c3scc4c3OCCO4)n2)c(F)c1 , please.
# output 73

# input Request the reported residual percentage in rat S9 fraction associated with Cc1nc(N2CCOCC2)sc1-c1nnc(Sc2c(F)cc(C(=O)NO)cc2F)n1C
# output 75

# input Need residual percentage in rat S9 fraction, item O=C(NO)c1cc(F)c(Cn2nnnc2-c2ccco2)c(F)c1
# output 71

# input residual percentage in rat S9 fraction for Cn1c(Sc2c(F)cc(C(=O)NO)cc2F)nnc1-c1sc2ncccc2c1N ?
# output 108

# input Which residual percentage in rat S9 fraction is reported for this molecule? COCCN(CCOC)c1cncc(-c2nc(Cc3c(F)cc(C(=O)NO)cc3F)no2)c1
# output 32

# input residual percentage in rat S9 fraction lookup needed for O=C(NO)c1cc(F)c(Cn2nnc(-c3cccs3)n2)c(F)c1 , thanks.
# output 8

# input Please report the recorded residual percentage in rat S9 fraction for Cn1c(Sc2c(F)cc(C(=O)NO)cc2F)nnc1-c1cccnc1 .
# output 91

# input Find the recorded residual percentage in rat S9 fraction belonging to O=C(NO)c1cc(F)c(Cn2nnc(-c3ccccn3)n2)c(F)c1 and report it.
# output 96.6

# input Requested read-out: residual percentage in rat S9 fraction. Entry: O=C(NO)c1cc(F)c(Cn2nnnc2-c2scc3c2OCCO3)c(F)c1
# output 36

# input # query: residual percentage in rat S9 fraction of entry Cn1c(Sc2ccc(C(=O)NO)cc2)nnc1-c1cccs1
# output 82

# input // lookup residual percentage in rat S9 fraction for O=C(NO)c1cc(F)c(Sc2nnc(-c3ccccc3)o2)c(F)c1
# output 17

# input Find the recorded residual percentage in rat S9 fraction belonging to CCn1c(Sc2ccc(C(=O)NO)cc2)nnc1-c1ccc(F)cc1 and report it.
# output 63

# input Can you look up the measured residual percentage in rat S9 fraction of O=C(NO)c1cc(F)c(Sc2nnc(-c3ccccn3)n2Cc2ccco2)c(F)c1 for me?
# output 12

# input Query: residual percentage in rat S9 fraction; subject: O=C(NO)c1ccc(Sc2nnc(-c3ccccc3)o2)cc1
# output 7

# input Quick check: residual percentage in rat S9 fraction of O=C(NO)c1cc(F)c(Sc2nnc(-c3ccc(F)cc3)n2CCN2CCOCC2)c(F)c1 ?
# output 79

# input Quick check: residual percentage in rat S9 fraction of COc1ccc(Cc2nc(Cc3ccc(C(=O)NO)cc3)n(-c3ccc(C(F)(F)F)cc3)n2)cc1OC ?
# output 87

# input Fill blank: measured residual percentage in rat S9 fraction of the molecule O=C(NO)c1cc(F)c(Cn2nnnc2Cc2ccccn2)c(F)c1.O=C(O)C(F)(F)F is ____.
# output 96

# input Sample CC1(C)CC(=O)c2c(S(C)(=O)=O)sc(-c3nnn(Cc4ccc(C(=O)NO)cc4)n3)c2C1 — what was its residual percentage in rat S9 fraction?
# output 61

# input Bench note: what residual percentage in rat S9 fraction did CN1CCN(Cc2ccc(-c3nnc(Sc4ccc(C(=O)NO)cc4)n3C)o2)CC1 show?
# output 84

* * *

Kindly state residual percentage in human plasma for each of the entries shown.
- method.summary: Stability in human plasma
- Format: in vitro ADME
- condition.context: after 4 hours, 37° C.
Respond numerically; units are % and should not be typed.

# input Need residual percentage in human plasma of O=C(NO)c1cc(F)c(Cn2nnnc2-c2cccs2)c(F)c1 [comp. 15] , thanks.
# output 91

# input Quick one: residual percentage in human plasma for CCc1oc(-c2nnc(Sc3c(F)cc(C(=O)NO)cc3F)n2C)cc1CN1CCCC1 [comp. 208] ?
# output 87

# input // lookup residual percentage in human plasma for O=C(NO)c1cc(F)c(Cn2nnnc2-c2ncccn2)c(F)c1 [comp. 125]
# output 77

# input I would be grateful if you could share the reported residual percentage in human plasma for Cn1c(Sc2ccc(C(=O)NO)cc2)nnc1-c1cccs1 [comp. 10] .
# output 99

# input Return reported residual percentage in human plasma; argument: O=C(NO)c1cc(F)c(Cc2nnc(-c3ccncc3)s2)c(F)c1 [compound 195]
# output 93

# input Consider the compound CN(C)Cc1ccc(-c2nnc(Sc3c(F)cc(C(=O)NO)cc3F)n2C)o1 [comp. 206] and give its measured residual percentage in human plasma.
# output 92

# input Requested field: residual percentage in human plasma. Item: O=C(NO)c1ccc(Cn2nnnc2-c2cccs2)cc1 [comp. 8]
# output 91

# input So what's the measured residual percentage in human plasma for this one? Cn1c(Sc2c(F)cc(C(=O)NO)cc2F)nnc1-c1ccc(CN2CCCCC2)o1 [comp. 212]
# output 83

# input For the compound shown here, CN(C)S(=O)(=O)c1cccc(-c2nnc(Cc3ccc(C(=O)NO)cc3)o2)c1 [comp. 3] , give the reported residual percentage in human plasma.
# output 100
